Hi there, I'd appreciate the recorded inhibition at 1 µM for every entry that follows.
Test system: contractile response to histamine, terminal ileum
Assay: Antihistaminic action: inhibition of contractile response to histamine (10^-6 M) in isolated terminal ileum
Assay type: cell-based, guinea-pig
Settings: Cavia porcellus, 0.05 h; antagonist 10^-6 M, 3 min contact, before washing; read-out: Inhibitory rate before washing
Note: unit % is implicit; provide only the numeric part.

Quick one: inhibition at 1 µM for Cn1c(=O)c2c(ncn2CCCN2CCCN(Cc3ccc([N+](=O)[O-])cc3)CC2)n(C)c1=O [(10)] ? 100

# iterate: Cn1c(=O)c2c(ncn2CCCN2CCCN(Cc3ccc(F)cc3)CC2)n(C)c1=O [(9)] 100

Entry Cn1c(=O)c2c(ncn2CCCN2CCCN(Cc3ccc(Cl)cc3Cl)CC2)n(C)c1=O [(7)] please 96

How about Cn1c(=O)c2c(ncn2CCCN2CCCN(c3ccccc3)CC2)n(C)c1=O [(4)] ? 100

Try this molecule next: Cn1c(=O)c2c(ncn2CCCN2CCCN(Cc3ccccc3Cl)CC2)n(C)c1=O [(6)] 100

Could you do the same for Cn1c(=O)c2c(ncn2CCCN2CCCN(Cc3ccc(Cl)cc3)CC2)n(C)c1=O [(5)] , please? 100
